The reported numbers originate from patent US12473298B2.

Form field: IC50 (one value per entry).
- subject_of_test: UniProt:Q15910
- protocol_description: radiometric assay, activity to wild-type EZH2 of PRC2
- study_conditions: read-out: Wild-type EZH2 IC50 Nanomoles per Liter
Kindly provide the numeric value in nM only, without the unit symbol.

// known answers, use as guide
Q: Quick check: IC50 of "CCN(c1cc(-c2ccc3c(c2)C(=O)C2(CCN(C)CC2)C3)cc(C(=O)NCc2c(C)cc(C)[nH]c2=O)c1C)C1CCOCC1" ?
Result: 1.03

Q: Then this compound: CCN(c1cc(-c2ccc3c(c2)C2(CCOCC2)C(=O)N3C)cc(C(=O)NCc2c(OC)cc(C)[nH]c2=O)c1C)C1CCN(CC(F)(F)F)CC1 [Example 109]
Result: 0.81

// below: IC50 requested for another compound
Q: Quick check: IC50 of "CCN(c1cc(-c2ccc3c(c2)NC(=O)C32CCOCC2)cc(C(=O)NCc2c(C)cc(C)[nH]c2=O)c1C)C1CCSCC1" ?
Result: 0.78

* * *

- protocol_description: Pharmacokinetic experiment in rats
- Format: in vivo, SD rats
- study_conditions: male, SD, rat, plasma; rats, Oral-Dose 20 mg/kg; read-out: Blood Drug level (Cmax, ng/mL)
Structures can show the parent of a compound that is named as a salt.
Form field: Cmax (one value per entry).
Kindly provide the numeric value in ng/mL only, without the unit symbol.

// known answers, use as guide
Q: Quick check: Cmax of CCN(c1cc(-c2ccc3c(c2)CCC32CCOCC2)cc(C(=O)NCc2c(OC)cc(C)[nH]c2=O)c1C)C1CCOC(C)(C)C1 (stereo not drawn) ?
Result: 490

Q: Then this molecule: "CCN(c1cc(-c2ccc3c(c2)N(C)C(=O)C32CCN(C(C)C)CC2)c(F)c(C(=O)NCc2c(C)cc(C)[nH]c2=O)c1C)C1CCOCC1"
Result: 426

Q: Then this molecule: CCN(c1cc(-c2ccc3c(c2)N(C(C)C(C)C)CC32CCOCC2)c(Cl)c(C(=O)NCc2c(C)cc(C)[nH]c2=O)c1C)C1CCOCC1 (stereo not drawn)
Result: 438

// below: Cmax requested for another molecule
Q: Quick check: Cmax of CCN(c1cc(-c2ccc3c(c2)C2(CC3)CC(C)N(CC)C(C)C2)cc(C(=O)NCc2c(OC)cc(C)[nH]c2=O)c1C)C1CCOCC1 (stereo not drawn) [Example 50, formate] ?
Result: 448

* * *

- subject_of_test: Mutant type EZH2(Y641N) (Homo sapiens (Human), UniProt Q15910, Y641N)
- Sequence (Q15910 whole entry Y641N): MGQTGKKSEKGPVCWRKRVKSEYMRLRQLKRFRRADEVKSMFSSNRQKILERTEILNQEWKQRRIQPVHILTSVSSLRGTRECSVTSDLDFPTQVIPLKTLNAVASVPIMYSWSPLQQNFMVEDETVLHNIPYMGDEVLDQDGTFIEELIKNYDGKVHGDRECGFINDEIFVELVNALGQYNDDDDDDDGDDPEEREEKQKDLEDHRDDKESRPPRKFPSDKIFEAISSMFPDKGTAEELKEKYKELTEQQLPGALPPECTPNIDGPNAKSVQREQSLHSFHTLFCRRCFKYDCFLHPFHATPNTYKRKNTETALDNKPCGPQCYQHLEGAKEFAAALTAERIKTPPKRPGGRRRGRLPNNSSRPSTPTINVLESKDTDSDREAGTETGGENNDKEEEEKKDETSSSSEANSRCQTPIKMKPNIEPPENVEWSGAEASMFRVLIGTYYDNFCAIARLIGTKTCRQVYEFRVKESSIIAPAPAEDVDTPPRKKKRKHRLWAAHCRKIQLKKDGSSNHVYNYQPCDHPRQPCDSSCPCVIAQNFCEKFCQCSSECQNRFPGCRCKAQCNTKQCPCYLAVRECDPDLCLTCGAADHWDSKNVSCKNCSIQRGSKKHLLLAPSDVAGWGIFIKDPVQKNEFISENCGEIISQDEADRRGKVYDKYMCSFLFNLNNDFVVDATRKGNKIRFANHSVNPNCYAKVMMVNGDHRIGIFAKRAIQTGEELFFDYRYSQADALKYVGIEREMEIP
- Sequence (O75530 whole entry partner): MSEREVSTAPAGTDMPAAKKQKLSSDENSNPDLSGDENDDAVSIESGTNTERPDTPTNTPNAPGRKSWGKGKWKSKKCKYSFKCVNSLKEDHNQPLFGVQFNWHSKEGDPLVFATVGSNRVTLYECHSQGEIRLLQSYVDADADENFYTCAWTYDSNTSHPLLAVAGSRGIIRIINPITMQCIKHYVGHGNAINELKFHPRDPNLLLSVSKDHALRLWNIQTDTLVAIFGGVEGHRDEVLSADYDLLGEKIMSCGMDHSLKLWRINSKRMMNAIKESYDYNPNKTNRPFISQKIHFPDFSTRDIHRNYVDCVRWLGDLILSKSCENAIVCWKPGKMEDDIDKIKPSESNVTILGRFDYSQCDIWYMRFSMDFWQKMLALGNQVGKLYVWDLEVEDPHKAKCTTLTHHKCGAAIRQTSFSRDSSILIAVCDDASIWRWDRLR
- Sequence (Q15022 whole entry partner): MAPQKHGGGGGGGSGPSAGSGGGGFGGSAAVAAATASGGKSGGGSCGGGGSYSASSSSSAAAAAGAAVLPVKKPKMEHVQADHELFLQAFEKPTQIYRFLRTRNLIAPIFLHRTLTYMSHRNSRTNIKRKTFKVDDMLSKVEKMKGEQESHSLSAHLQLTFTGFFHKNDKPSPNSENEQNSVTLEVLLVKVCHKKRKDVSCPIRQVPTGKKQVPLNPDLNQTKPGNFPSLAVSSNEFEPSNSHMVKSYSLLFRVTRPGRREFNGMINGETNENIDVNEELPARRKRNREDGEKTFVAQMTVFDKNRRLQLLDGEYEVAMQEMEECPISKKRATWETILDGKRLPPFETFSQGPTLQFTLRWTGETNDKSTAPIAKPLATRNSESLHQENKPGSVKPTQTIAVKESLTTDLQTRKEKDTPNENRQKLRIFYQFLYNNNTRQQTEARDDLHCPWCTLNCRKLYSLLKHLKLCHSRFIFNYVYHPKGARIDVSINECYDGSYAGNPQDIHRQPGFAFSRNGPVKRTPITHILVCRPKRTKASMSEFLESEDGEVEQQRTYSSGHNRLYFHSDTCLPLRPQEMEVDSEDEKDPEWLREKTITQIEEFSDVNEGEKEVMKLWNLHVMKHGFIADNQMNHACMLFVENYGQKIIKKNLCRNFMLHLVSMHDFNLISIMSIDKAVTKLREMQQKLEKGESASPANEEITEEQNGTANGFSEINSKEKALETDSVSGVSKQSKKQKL
- Sequence (Q09028 whole entry partner): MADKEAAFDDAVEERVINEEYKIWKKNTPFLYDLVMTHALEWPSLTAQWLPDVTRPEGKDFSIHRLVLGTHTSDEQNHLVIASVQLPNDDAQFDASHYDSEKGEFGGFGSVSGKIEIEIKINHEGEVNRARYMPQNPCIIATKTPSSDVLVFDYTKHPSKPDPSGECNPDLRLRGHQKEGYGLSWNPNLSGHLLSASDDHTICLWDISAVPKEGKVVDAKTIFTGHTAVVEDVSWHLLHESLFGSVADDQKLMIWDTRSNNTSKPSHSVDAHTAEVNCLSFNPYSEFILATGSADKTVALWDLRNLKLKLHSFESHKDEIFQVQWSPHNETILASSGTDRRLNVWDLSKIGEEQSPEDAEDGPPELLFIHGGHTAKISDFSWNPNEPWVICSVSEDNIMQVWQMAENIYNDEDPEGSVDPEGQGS
- Sequence (Q6ZN18 whole entry partner): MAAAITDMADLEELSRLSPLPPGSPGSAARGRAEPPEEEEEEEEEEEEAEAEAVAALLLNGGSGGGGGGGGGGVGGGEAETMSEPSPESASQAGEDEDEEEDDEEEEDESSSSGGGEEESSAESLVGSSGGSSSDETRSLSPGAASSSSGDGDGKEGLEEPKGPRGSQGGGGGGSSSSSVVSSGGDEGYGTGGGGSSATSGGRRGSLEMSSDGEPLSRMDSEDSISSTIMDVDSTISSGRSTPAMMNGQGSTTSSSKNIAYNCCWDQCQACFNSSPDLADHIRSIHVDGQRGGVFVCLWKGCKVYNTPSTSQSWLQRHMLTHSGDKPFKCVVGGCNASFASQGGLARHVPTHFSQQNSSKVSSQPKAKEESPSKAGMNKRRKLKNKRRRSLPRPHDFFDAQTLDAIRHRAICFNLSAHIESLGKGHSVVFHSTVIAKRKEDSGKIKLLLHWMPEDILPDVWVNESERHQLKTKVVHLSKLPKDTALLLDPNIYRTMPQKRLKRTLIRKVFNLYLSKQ
- protocol_description: AlphaLISA, mutant type PRC2 complex EZH2(Y641N)
- study_conditions: read-out: Mutant type EZH2(Y641N) IC50 Nanomoles per Liter
Form field: IC50 (one value per entry).
Kindly provide the numeric value in nM only, without the unit symbol.

Q: Quick check: IC50 of CCN(c1cc(-c2ccc3c(c2)NC(=O)C32CCC(C)(O)CC2)cc(C(=O)NCc2c(C)cc(C)[nH]c2=O)c1C)C1CCOCC1 (centres unmarked) ?
Result: 0.4

Q: Then this compound: "CCN(c1cc(-c2ccc3c(c2)C2(CCOCC2)C(=O)N3C)cc(C(=O)NCc2c(C)cc(C)[nH]c2=O)c1C)C1CCOCC1"
Result: 0.38

Q: Then this compound: CCN(c1cc(-c2ccc3c(c2)NC(=O)C32CCOCC2)cc(C(=O)NCc2c(C)cc(C)[nH]c2=O)c1C)C1CCC(N(C)C2COC2)CC1 (centres unmarked)
Result: 0.53

Q: Then this compound: "CCN(c1cc(-c2ccc3c(c2)C=CC32CCN(C(C)C)CC2)cc(C(=O)NCc2c(OC)cc(C)[nH]c2=O)c1C)C1CCOCC1"
Result: 0.23

Q: Then this compound: CCN(c1cc(-c2ccc3c(c2)N(C(C)C(C)C)CC32CCOCC2)c(Cl)c(C(=O)NCc2c(C)cc(C)[nH]c2=O)c1C)C1CCOCC1 (centres unmarked)
Result: 0.3

Next:
Q: Quick check: IC50 of "CCN(c1cc(-c2ccc3c(c2)NC(=O)C32CCNCC2)cc(C(=O)NCc2c(C)cc(C)[nH]c2=O)c1C)C1CCSCC1" ?
Result: 0.37

Q: Then this compound: "CCN(c1cc(-c2ccc3c(c2)NC(=O)C32CCN(C(C)=O)CC2)cc(C(=O)NCc2c(C)cc(C)[nH]c2=O)c1C)C1CCOCC1"
Result: 0.42

Q: Then this compound: CCN(c1cc(-c2ccc3c(c2)C2(CCC(F)CC2)C(=O)N3)cc(C(=O)NCc2c(C)cc(C)[nH]c2=O)c1C)C1CCOCC1 (centres unmarked)
Result: 0.63

* * *

Form field: AUC (one value per entry).
- protocol_description: Pharmacokinetic experiment in rats
- Format: in vivo, SD rats
- study_conditions: male, SD, rat, plasma; rats, Intravenous-Dose 4 mg/kg; read-out: Area Curve (AUC, ng/mL · h)
The answer should read as a number with its unit following.

// known answers, use as guide
Q: Quick check: AUC of "CCN1C(=O)C2(CCOCC2)c2ccc(-c3cc(C(=O)NCc4c(C)cc(C)[nH]c4=O)c(C)c(N(CC)C4CCOCC4)c3)cc21" ?
Result: 932 ng·h/mL

Q: Then this compound: "CCN(c1cc(-c2ccc3c(c2)N(C(C)C)CC32CCOCC2)c(Cl)c(C(=O)NCc2c(OC)cc(C)[nH]c2=O)c1C)C1CCOCC1"
Result: 997 ng·h/mL

Next:
Q: Quick check: AUC of "CCN(c1cc(-c2cc3c(cc2F)CCC32CCOCC2)cc(C(=O)NCc2c(C)cc(C)[nH]c2=O)c1C)C1CCOCC1" ?
Result: 943 ng·h/mL

* * *

- System: human diffuse large B-cell lymphoma cells (Karpas 422 cell)
- protocol_description: Karpas 422 cell proliferation, Calcein AM staining
- Type: cell-based
- study_conditions: Homo sapiens, KARPAS-422; data of 14th day; read-out: Karpas422 Proliferation IC50 Nanomoles per Liter
Form field: pIC50 (one value per entry).
Recall that pIC50 is obtained by taking minus log10 of the concentration measured in molar.

Q: Quick check: pIC50 of CCN(c1cc(-c2ccc3c(c2)NC(=O)C32CCC(C)(O)CC2)cc(C(=O)NCc2c(C)cc(C)[nH]c2=O)c1C)C1CCOCC1 (stereo not shown) ?
Result: 8.58

Q: Then this compound: "CCN(c1cc(-c2ccc3c(c2)N(CCOC)C(=O)C32CCOCC2)cc(C(=O)NCc2c(C)cc(C)[nH]c2=O)c1C)C1CCOCC1"
Result: 9.37

Q: Then this compound: "CCN(c1cc(-c2ccc3c(c2)NC(=O)C32CCNCC2)cc(C(=O)NCc2c(C)cc(C)[nH]c2=O)c1C)C1CCNCC1"
Result: 8.45

Next:
Q: Quick check: pIC50 of "CCN(c1cc(-c2ccc3c(c2)C2(CCOCC2)C(=O)N3C)cc(C(=O)NCc2c(C)cc(C)[nH]c2=O)c1C)C1CCOCC1" ?
Result: 8.32

* * *

- protocol_description: Pharmacokinetic experiment in rats
- Format: in vivo, SD rats
- study_conditions: male, SD, rat, plasma; rats, Oral-Dose 20 mg/kg; read-out: Blood Drug level (Cmax, ng/mL)
Form field: Cmax (one value per entry).
Kindly provide the numeric value in ng/mL only, without the unit symbol.

Q: Quick check: Cmax of "CCN(c1cc(-c2cc3c(cc2F)C2(CCOCC2)C(=O)N3C)cc(C(=O)NCc2c(C)cc(C)[nH]c2=O)c1C)C1CCOCC1" ?
Result: 412

Q: Then this molecule: CCN(c1cc(-c2ccc3c(c2)NC(=O)C32CCOCC2)cc(C(=O)NCc2c(OC)cc(C)[nH]c2=O)c1C)C1CCOCC1OC (centres unmarked)
Result: 494

Next:
Q: Quick check: Cmax of "CCN(c1cc(-c2ccc3c(c2)C2(CCOCC2)C(=O)N3C)cc(C(=O)NCc2c(OC)cc(C)[nH]c2=O)c1C)C1CCN(CC(F)(F)F)CC1" ?
Result: 456

Q: Then this molecule: "CCN(c1cc(-c2ccc3c(c2)NCC32CCOCC2)cc(C(=O)NCc2c(OC)cc(C)[nH]c2=O)c1C)C1CCNCC1"
Result: 453

Q: Then this molecule: "CCN(c1cc(-c2ccc3c(c2)NCC32CCOCC2)cc(C(=O)NCc2c(C)cc(C)[nH]c2=O)c1C)C1CCNCC1"
Result: 494

* * *

- subject_of_test: Mutant type EZH2(Y641N) (Homo sapiens (Human), UniProt Q15910, Y641N)
- protocol_description: AlphaLISA, mutant type PRC2 complex EZH2(Y641N)
- study_conditions: read-out: Mutant type EZH2(Y641N) IC50 Nanomoles per Liter
Form field: IC50 (one value per entry).
Kindly provide the numeric value in nM only, without the unit symbol.

Q: Quick check: IC50 of CCN(c1cc(-c2cc3c(cc2F)C2(CCOCC2)CC3)cc(C(=O)NCc2c(OC)cc(C)[nH]c2=O)c1C)C1CCOCC1 [Example 17] ?
Result: 0.3

Q: Then this molecule: CCN(c1cc(-c2ccc3c(c2)NC(=O)C32CCOCC2)cc(C(=O)NCc2c(C)cc(C)[nH]c2=O)c1C)C1CC(C)OC(C)C1 (stereo not drawn) [Example 104]
Result: 0.19

Q: Then this molecule: CCN(c1cc(-c2ccc3c(c2)NC(=O)C32CCOCC2)cc(C(=O)NCc2c(OC)cc(C)[nH]c2=O)c1C)C1CCC(N(C)CCOC)CC1 (stereo not drawn) [Example 120]
Result: 0.48

Q: Then this molecule: CCN(c1cc(-c2ccc3c(c2)NC(=O)C32CCC(O)CC2)cc(C(=O)NCc2c(C)cc(C)[nH]c2=O)c1C)C1CCOCC1 (stereo not drawn) [Example 94]
Result: 0.62

Q: Then this molecule: CCN(c1cc(-c2ccc3c(c2)CCC32CCOCC2)cc(C(=O)NCc2c(OC)cc(C)[nH]c2=O)c1C)C1CCOCC1 [Example 113]
Result: 0.27

Q: Then this molecule: CCN(c1cc(-c2ccc3c(c2)NC(=O)C32CCN(C3COC3)CC2)cc(C(=O)NCc2c(C)cc(C)[nH]c2=O)c1C)C1CCOCC1 [Example 84]
Result: 0.25
